- test-method-notes: Equilibrium solubility in bio-relevant media at ambient temperature
- Type: physicochemical
- recorded-conditions: fasted state simulating gastric fluid (FaSSGF), fassgf or other biorelevant, thermodynamic from solid, fasted state simulating gastric fluid (FaSSGF), read-out: equilibrium solubility in FaSSGF
experimental-readout: solubility thermodynamic (mg/mL)
Entry rule: numbers only, all in mg/mL.

Form field solubility thermodynamic, entry COc1ccc2c(c1)[C@]1(C[C@H]1c1ccc3c(/C=C/c4ccc(CN5C[C@@H](C)O[C@@H](C)C5)cc4)n[nH]c3c1)C(=O)N2 [form D] : 2.08

* * *

- test-method-notes: Equilibrium solubility in bio-relevant media at ambient temperature
- Type: physicochemical
- recorded-conditions: fasted state simulating intestinal fluid (FaSSIF), fassif, thermodynamic from solid, fasted state simulating intestinal fluid (FaSSIF), read-out: equilibrium solubility in FaSSIF
- Experimental: Also, equilibrium solubilities were measured in various bio-relevant media at ambient temperature.
experimental-readout: solubility thermodynamic (mg/mL)
Entry rule: numbers only, all in mg/mL.

Form field solubility thermodynamic, entry COc1ccc2c(c1)[C@]1(C[C@H]1c1ccc3c(/C=C/c4ccc(CN5C[C@@H](C)O[C@@H](C)C5)cc4)n[nH]c3c1)C(=O)N2 [form D] : 0.08
